Listed here: items and their measured IC50.
# System: COLO 205
# protocolDetails: cells
# Assay type: functional, cell-based
# experimentalParameters: Homo sapiens
# Description: SANGER: Inhibition of human COLO-205 cell growth in a cell viability assay.
Give just the number in nM; leave the unit off.

CC(C)=CC[C@@H](O)C1=CC(=O)c2c(O)ccc(O)c2C1=O [SHIKONIN] ... 538

Could you now consider this next compound?
Param item: CCNC(=O)c1noc(-c2cc(C(C)C)c(O)cc2O)c1-c1ccc(CN2CCOCC2)cc1 [LUMINESPIB] ; param system: COLO 205; output IC50: 49.2

----------
# Tested on: U-118-MG
# protocolDetails: cells
# Format: functional, cell-based
# experimentalParameters: Homo sapiens
# Description: SANGER: Inhibition of human U-118-MG cell growth in a cell viability assay.
pIC50: −log10 of the molar value.
experimentalEndpoint: pIC50

Observe how each entry below is paired with its result.
Fc1cc(-c2cc[nH]/c(=N/c3ccc(-n4cnc(N5CCOCC5)n4)cc3)n2)cc(N2CCOCC2)c1 ... < 5.29
O=c1cc(N2CCOCC2)oc2c(-c3cccc4c3sc3ccccc34)cccc12 ... < 5.70
C[C@]1(c2nc3c(C(N)=O)cccc3[nH]2)CCCN1 ... < 5.30

Could you now consider this next compound?
Param item: Cn1c(=O)n(-c2ccc(C(C)(C)C#N)cc2)c2c3cc(-c4cnc5ccccc5c4)ccc3ncc21 ; param system: U-118-MG; output pIC50: 6.87

----------
Listed here: items and their measured IC50.
# Tested on: ES5;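 further: growth inhibition of human ES5 cells, read out by a cell viability assay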
# protocolDetails: cells
# Format: functional, cell-based
# experimentalParameters: Homo sapiens
# Description: SANGER: Inhibition of human ES5 cell growth in a cell viability assay.

Observe how each entry below is paired with its result.
CCNC(=O)c1noc(-c2cc(C(C)C)c(O)cc2O)c1-c1ccc(CN2CCOCC2)cc1 ... > 256 nM
C/C=C(/C)C(=O)O[C@H]1C(C)=C2[C@H]([C@@H]1OC(=O)CCCCCCC)[C@@](C)(OC(C)=O)C[C@H](OC(=O)CCC)[C@@]1(O)[C@H]2OC(=O)[C@@]1(C)O ... > 512 nM

Could you now consider this next compound?
Reported IC50 for CO[C@@]12[C@H](COC(N)=O)C3=C(C(=O)C(C)=C(N)C3=O)N1C[C@@H]1N[C@@H]12 was 102 nM

----------
# System: BB49-HNC;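 further: cell viability assay read-out, reported as inhibition of BB49-HNC cell growth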
# protocolDetails: cells
# Type: functional, cell-based
# experimentalParameters: Homo sapiens
# Description: SANGER: Inhibition of human BB49-HNC cell growth in a cell viability assay.
experimentalEndpoint: IC50

Observe how each entry below is paired with its result.
Cc1ccc(NC(=O)c2cccc(C(C)(C)C#N)c2)cc1Nc1ccc2ncn(C)c(=O)c2c1 ... 352 nM
COc1cc(C)c(Sc2cnc(NC(=O)c3ccc(CNC(C)C(C)(C)C)cc3)s2)cc1C(=O)N1CCN(C(C)=O)CC1 (centres undefined) ... > 10200 nM
O=c1cc(N2CCOCC2)oc2c(-c3cccc4c3sc3ccccc34)cccc12 ... > 2000 nM
CCNc1cc(N[C@H]2CC[C@@H](O)CC2)nc(Nc2ccc3c(ccn3Cc3ccccc3)c2)n1 ... > 5120 nM
CCNC(=O)c1noc(-c2cc(C(C)C)c(O)cc2O)c1-c1ccc(CN2CCOCC2)cc1 [LUMINESPIB] ... 10.8 nM
CCCS(=O)(=O)Nc1ccc(F)c(C(=O)c2c[nH]c3ncc(Cl)cc23)c1F [PLX-4720] ... > 10000 nM
O=c1[nH]c2ccccc2n1C1CCN(Cc2ccc(-c3nc4cc5[nH]cnc5cc4nc3-c3ccccc3)cc2)CC1 ... > 2560 nM
CCn1c(-c2nonc2N)nc2cnc(Oc3cccc(NC(=O)c4ccc(OCCN5CCOCC5)cc4)c3)cc21 [GSK-269962A] ... 7.89 nM

Could you now consider this next compound?
Param item: CO[C@@]12[C@H](COC(N)=O)C3=C(C(=O)C(C)=C(N)C3=O)N1C[C@@H]1N[C@@H]12 [MITOMYCIN] ; param system: BB49-HNC; output IC50: 353 nM
